All figures here come from the supplement of paper PMC11451515.

# Tested on: P12-Ichikawa
# experimental-protocol: AUC of viability dose-response curve (% viability x log10 dose units); higher = less sensitive
# condition-notes: RPMI 5 mM glucose + 10% FBS; 48 h
property-name: AUC of viability dose-response curve

Use the examples below as a reference point.
CC1(C)C(=O)N(CCN2CCC(C(=O)c3ccc(F)cc3)CC2)c2ccccc21 : 472
C=CCNC1=C2C[C@@H](C)C[C@H](OC)[C@H](O)[C@@H](C)/C=C(\C)[C@H](OC(N)=O)[C@@H](OC)/C=C\C=C(/C)C(=O)NC(=CC1=O)C2=O : 380
COc1cc(C(=O)N2CCC(N3CCN(C)CC3)CC2)ccc1Nc1ncc2c(n1)N(C)c1ccccc1C(=O)N2C : 435
O=C(Nc1nc2ccccc2n1CCN1CCOCC1)c1cccc([N+](=O)[O-])c1 : 445
[NH2][Pt]([NH2])([Cl])[Cl] : 449
CCC(=O)OCC(=O)[C@@]1(OC(=O)CC)[C@@H](C)C[C@H]2[C@@H]3CCC4=CC(=O)C=C[C@]4(C)[C@@]3(F)[C@@H](O)C[C@@]21C : 335
Cc1cccc(-c2nn(C(=S)Nc3ccccc3)cc2-c2ccnc3ccccc23)n1 : 444
O=C(NC[C@H]1CN(c2ccc(N3CCOCC3=O)cc2)C(=O)O1)c1ccc(Cl)s1 : 376

As a next step, examine the molecule that follows.
Endpoint output: AUC of viability dose-response curve of CCC1(c2ccc(N)cc2)CCC(=O)NC1=O (centres undefined) . Value?
427
